B1: HDV Ribozyme (parent)
chain: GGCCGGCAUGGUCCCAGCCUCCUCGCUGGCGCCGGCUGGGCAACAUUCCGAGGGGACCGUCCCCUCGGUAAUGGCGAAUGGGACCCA

# Variants of: B1
# protocol.details: self-cleavage, relative activity (ratio to wild type); higher = more cleavage; co-transcriptional
// values below are reported self-cleavage
value.kind: self-cleavage

G59C G74U    0.531
G29A G35A    0.0923
A51C A70C    1.03
U20G U37G    0
G50C C57G    1.12
C86G A87G    0.905
U72G C85G    0.609
C64G A83C    0.373
U37A A43C    0.0723
G40U U46C    0.227
C7G G81U    0.0594
A56U A71U    0.864
C62U A71U    1.05
C15G U37G    0
G29U G81U    0.0554
C7A C18U    0.229
U37C G82U    0.399
G5C A16G    0.145
A16G C66U    0.988
U37A G81A    0.166
C22U C48G    0.635
C30G U72C    0.0594
U47A U60A    0.851
G34C G55U    0.113
C18G A78C    0
C3G G52C    0.658
G1C C4U    0.0489
C75A G81C    0.157
G50C G81U    0.263
G29U C32G    0.0455
C22U A78G    0.314
A16G U20C    0.128
U12G G17U    0.475
G17U C26G    0.608
C18U C61A    0.709
G31C A45U    0.0437
C41A G73U    0.873
G17C G25U    0.101
C7U C33G    0.0536
C30G U60G    0.0386
C24A G35A    0.212
C62U A83U    0.318
C14U G67C    0.929
G1U U47C    0.475
A77G C84G    0.573
